Listed next: entries and their corresponding ELISA [abs. corr.].
- Test System: T1, CD134 protein (His-tagged, Sino Biological Inc. 10481-H08H) (human, UniProt P43489 29-216)
- T1 construct: bought protein coated on ELISA plates; also called OX40; TNFRSF4; not shown: His tag
- T1 sequence (looked up): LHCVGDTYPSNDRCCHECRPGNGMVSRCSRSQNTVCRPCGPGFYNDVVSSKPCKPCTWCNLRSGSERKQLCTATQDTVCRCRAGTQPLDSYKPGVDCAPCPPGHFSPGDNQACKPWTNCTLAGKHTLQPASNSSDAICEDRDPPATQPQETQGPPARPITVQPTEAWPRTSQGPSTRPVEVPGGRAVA
- Assay Method Text: ELISA, coated His-tagged CD134; further: test concentration or dose not given here
The reply should be a number in abs. corr., with the unit left off.

>>> reported_measurement("P018.S.12.A.C04 (antibody, V domains shown, V regions on human Ig constant parts; also called AB134_64) VH: QSLEESGGRLVTPGGSLTLTCTVSGIDLSRWTMSWVRQAPGKGLEWIGLIYASDDTVYASWAKGRFTISKTSTTVDLKITSPTTEDTATYFCVRVYGSTSGYYDLWGQGTLVTVSS VL: DVVMTQTPASVSEPVGGTVTIKCQASQSISNWLAWYQQKPGQPPKLLIYYASTLASGVPSRFKGSGSGTQFTLTISDLESADAATYYCQNFGDGNSIGHAFGGGTEVVVK")
2.04

As a next step, examine the binder that follows.
So what's the measured ELISA [abs. corr.] for this one? P018.S.11.A.H04 (antibody, V domains shown, V regions on human Ig constant parts; also called AB134_47) VH: QEQLEESGGDLVKPGASLTLTCTASGLSFSGSYWICWVRQAPGKGLEWIGCITAGISGSTYYASWAKGRFTISKTSSTTVTLQMTSLTAADTATYFCARERTGGWGDFNLWGPGTLVTVSS VL: DVVMTQTPASVEAAVGGTVTIKCQASQSITTYLSWYQQKPGQPPKLLIYLASTLESGVPSRFKGSRSGTEYTLTISDLESADAATYYCQCTDGGINHWFWAFGGGTEVVVK
2.65
